Biological target: UniProt:Q92769
Assay: HDAC enzymatic assay, HDAC2
Assay type: biochemical
Details: fluorogenic tetrapeptide RHKKAc substrate 10 μM; read-out: HDAC isoforms IC50 (nM), 2

COMPOUND	IC50
O=C1CCC[C@@H](C(=O)N[C@@H](CCCCCS)C(=O)Nc2ccccc2)N1 [Example 23]	50 to 100 nM
O=C1CCC[C@@H](C(=O)N[C@@H](CCCCCS)C(=O)NCc2ccc(C(F)(F)F)cc2)N1 [Example 26]	100 to 500 nM
O=C1NC[C@H](c2ccccc2)[C@@H]1C(=O)N[C@@H](CCCCCS)C(=O)Nc1ccccc1 [Example 28]	100 to 500 nM
O=C1NC[C@@H](c2ccccc2)[C@H]1C(=O)N[C@@H](CCCCCS)C(=O)Nc1ccccc1 [Example 29]	100 to 500 nM
O=C1CCC[C@@H](C(=O)N[C@@H](CCCCCS)C(=O)NC2CCCC2)N1 [Example 24]	100 to 500 nM
O=C1C[C@@H](C(=O)N[C@@H](CCCCCS)C(=O)Nc2ccccc2)N1 [Example 27]	50 to 100 nM
O=C1CC[C@H](C(=O)N[C@@H](CCCCCS)C(=O)Nc2ccccc2)N1 [Example 33]	50 to 100 nM
Cc1ccc(NC(=O)[C@H](CCCCCS)NC(=O)[C@@H]2CCCC(=O)N2)cc1 [Example 39]	50 to 100 nM

----------
Target: HDAC10 (Homo sapiens)
Sequence (Q969S8 whole entry): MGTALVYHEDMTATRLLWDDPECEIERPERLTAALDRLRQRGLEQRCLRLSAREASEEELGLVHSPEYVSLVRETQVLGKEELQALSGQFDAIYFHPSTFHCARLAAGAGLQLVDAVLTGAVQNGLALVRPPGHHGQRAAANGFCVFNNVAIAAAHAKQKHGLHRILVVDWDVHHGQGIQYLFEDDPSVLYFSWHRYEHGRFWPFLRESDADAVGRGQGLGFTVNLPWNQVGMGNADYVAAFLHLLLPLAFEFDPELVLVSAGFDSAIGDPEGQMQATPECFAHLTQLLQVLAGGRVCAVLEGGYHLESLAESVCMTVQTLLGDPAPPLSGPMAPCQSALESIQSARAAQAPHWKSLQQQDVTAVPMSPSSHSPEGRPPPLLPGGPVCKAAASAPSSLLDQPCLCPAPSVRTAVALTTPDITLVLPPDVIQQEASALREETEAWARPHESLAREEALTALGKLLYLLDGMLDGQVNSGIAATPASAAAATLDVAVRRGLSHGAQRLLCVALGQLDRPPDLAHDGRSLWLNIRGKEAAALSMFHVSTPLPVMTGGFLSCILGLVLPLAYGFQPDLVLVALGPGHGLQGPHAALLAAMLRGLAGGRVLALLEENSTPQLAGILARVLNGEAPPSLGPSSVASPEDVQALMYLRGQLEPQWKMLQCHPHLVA
Assay: HDAC enzymatic assay, HDAC10
Assay type: biochemical
Details: fluorogenic tetrapeptide RHKKAc substrate 10 μM; read-out: HDAC isoforms IC50 (nM), 10
The reader will find reported IC50 values listed item by item below.
OBSERVABLE: IC50

INPUT SMILES	SYSTEM TESTED	OBSERVABLE	VALUE REPORTED
Cc1cccc(CCNC(=O)[C@H](CCCCCS)NC(=O)[C@@H]2CCCC(=O)N2)c1	HDAC10 (Homo sapiens)	IC50	50 to 100 nM
Cc1cccc(NC(=O)[C@H](CCCCCS)NC(=O)[C@@H]2CCCC(=O)N2)c1	HDAC10 (Homo sapiens)	IC50	< 50 nM
O=C1CCC[C@@H](C(=O)N[C@@H](CCCCCS)C(=O)NC2CCCC2)N1	HDAC10 (Homo sapiens)	IC50	100 to 500 nM
O=C1NCCC[C@H]1C(=O)N[C@@H](CCCCCS)C(=O)Nc1ccccc1	HDAC10 (Homo sapiens)	IC50	< 50 nM
O=C1CC[C@H](C(=O)N[C@@H](CCCCCS)C(=O)Nc2ccccc2)N1	HDAC10 (Homo sapiens)	IC50	< 50 nM
O=C1NC[C@H](c2ccccc2)[C@@H]1C(=O)N[C@@H](CCCCCS)C(=O)Nc1ccccc1	HDAC10 (Homo sapiens)	IC50	< 50 nM
O=C1C[C@@H](C(=O)N[C@@H](CCCCCS)C(=O)Nc2ccccc2)N1	HDAC10 (Homo sapiens)	IC50	< 50 nM
O=C1NCCC[C@@H]1C(=O)N[C@@H](CCCCCS)C(=O)Nc1ccccc1	HDAC10 (Homo sapiens)	IC50	< 50 nM

----------
Here the recorded IC50 is given for each entry.
Molecular target: HDAC2 (Homo sapiens)
Sequence (Q92769 whole entry): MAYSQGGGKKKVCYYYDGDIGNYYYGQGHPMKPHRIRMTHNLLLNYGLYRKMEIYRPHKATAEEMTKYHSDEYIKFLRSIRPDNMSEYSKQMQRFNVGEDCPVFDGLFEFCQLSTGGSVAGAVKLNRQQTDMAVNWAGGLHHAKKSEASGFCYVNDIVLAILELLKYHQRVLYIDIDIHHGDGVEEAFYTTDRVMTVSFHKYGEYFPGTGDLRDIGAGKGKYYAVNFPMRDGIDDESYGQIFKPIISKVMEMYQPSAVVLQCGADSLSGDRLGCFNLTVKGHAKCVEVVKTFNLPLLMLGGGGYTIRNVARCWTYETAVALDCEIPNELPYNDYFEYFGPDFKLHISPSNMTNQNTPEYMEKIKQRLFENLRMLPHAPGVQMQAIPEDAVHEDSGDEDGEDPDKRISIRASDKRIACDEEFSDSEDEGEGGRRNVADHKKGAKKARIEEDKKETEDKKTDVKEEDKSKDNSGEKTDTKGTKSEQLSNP
Experiment: HDAC enzymatic assay, HDAC2
Assay type: biochemical
Settings: fluorogenic tetrapeptide RHKKAc substrate 10 μM; read-out: HDAC isoforms IC50 (nM), 2

INPUT SMILES	SYSTEM TESTED	IC50
O=C1NCCC[C@H]1C(=O)N[C@@H](CCCCCS)C(=O)Nc1ccccc1	HDAC2 (Homo sapiens)	< 50 nM
O=C1CCC[C@@H](C(=O)N[C@@H](CCCCCS)C(=O)NCc2cccc(OCc3ccccc3)c2)N1	HDAC2 (Homo sapiens)	100 to 500 nM
CN1C(=O)CCC[C@H]1C(=O)N[C@@H](CCCCCS)C(=O)Nc1ccccc1	HDAC2 (Homo sapiens)	50 to 100 nM
Cc1cccc(NC(=O)[C@H](CCCCCS)NC(=O)[C@@H]2CCCC(=O)N2)c1	HDAC2 (Homo sapiens)	< 50 nM
O=C1CCC[C@@H](C(=O)N[C@@H](CCCCCS)C(=O)N2CCc3ccccc3C2)N1	HDAC2 (Homo sapiens)	< 50 nM
O=C1NCCC[C@@H]1C(=O)N[C@@H](CCCCCS)C(=O)Nc1ccccc1	HDAC2 (Homo sapiens)	< 50 nM
O=C1NC[C@H](c2ccccc2)[C@H]1C(=O)N[C@@H](CCCCCS)C(=O)Nc1ccccc1	HDAC2 (Homo sapiens)	100 to 500 nM
O=C1NC[C@@H](c2ccccc2)[C@@H]1C(=O)N[C@@H](CCCCCS)C(=O)Nc1ccccc1	HDAC2 (Homo sapiens)	< 50 nM
Cc1cccc(CCNC(=O)[C@H](CCCCCS)NC(=O)[C@@H]2CCCC(=O)N2)c1	HDAC2 (Homo sapiens)	100 to 500 nM
O=C1CCC[C@H](C(=O)N[C@@H](CCCCCS)C(=O)Nc2ccccc2)N1	HDAC2 (Homo sapiens)	< 50 nM

----------
Molecular target: HDAC5 (Homo sapiens, UniProt Q9UQL6)
Sequence (Q9UQL6 whole entry): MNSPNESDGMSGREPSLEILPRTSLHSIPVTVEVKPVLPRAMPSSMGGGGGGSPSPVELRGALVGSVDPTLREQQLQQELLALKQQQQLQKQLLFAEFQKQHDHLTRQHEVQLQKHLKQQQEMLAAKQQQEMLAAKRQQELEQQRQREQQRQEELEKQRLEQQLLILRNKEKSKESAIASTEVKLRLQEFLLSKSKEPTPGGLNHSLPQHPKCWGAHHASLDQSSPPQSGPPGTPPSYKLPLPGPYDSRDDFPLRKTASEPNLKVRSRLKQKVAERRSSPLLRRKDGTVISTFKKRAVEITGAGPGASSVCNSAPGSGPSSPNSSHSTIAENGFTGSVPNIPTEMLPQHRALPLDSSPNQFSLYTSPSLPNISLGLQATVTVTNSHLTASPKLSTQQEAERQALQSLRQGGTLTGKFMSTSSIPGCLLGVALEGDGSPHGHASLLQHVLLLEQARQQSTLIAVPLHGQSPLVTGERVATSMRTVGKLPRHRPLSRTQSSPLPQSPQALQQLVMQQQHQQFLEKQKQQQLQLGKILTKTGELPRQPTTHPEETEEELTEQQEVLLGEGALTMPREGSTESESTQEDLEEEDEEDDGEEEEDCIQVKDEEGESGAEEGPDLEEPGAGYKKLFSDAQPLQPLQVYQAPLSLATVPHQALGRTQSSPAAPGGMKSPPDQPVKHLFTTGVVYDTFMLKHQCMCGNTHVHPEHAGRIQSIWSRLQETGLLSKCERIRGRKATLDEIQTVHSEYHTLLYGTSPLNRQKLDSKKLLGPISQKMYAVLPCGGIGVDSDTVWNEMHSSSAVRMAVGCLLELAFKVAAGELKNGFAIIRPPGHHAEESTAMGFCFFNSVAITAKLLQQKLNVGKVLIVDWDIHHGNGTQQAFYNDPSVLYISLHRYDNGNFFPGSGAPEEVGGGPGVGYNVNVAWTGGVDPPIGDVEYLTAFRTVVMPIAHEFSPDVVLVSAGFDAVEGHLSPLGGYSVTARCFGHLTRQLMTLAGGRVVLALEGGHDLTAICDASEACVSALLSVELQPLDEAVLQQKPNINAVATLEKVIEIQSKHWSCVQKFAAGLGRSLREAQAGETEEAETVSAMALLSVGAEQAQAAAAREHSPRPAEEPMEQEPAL
Experiment: HDAC enzymatic assay, HDAC5
Type: biochemical
Settings: fluorogenic tetrapeptide RHKKAc substrate 10 μM; read-out: HDAC isoforms IC50 (nM), 5

INPUT SMILES	SYSTEM TESTED	IC50
O=C1NCCC[C@@H]1C(=O)N[C@@H](CCCCCS)C(=O)Nc1ccccc1	HDAC5 (Homo sapiens, UniProt Q9UQL6)	< 50 nM
O=C1NC[C@H](c2ccccc2)[C@H]1C(=O)N[C@@H](CCCCCS)C(=O)Nc1ccccc1	HDAC5 (Homo sapiens, UniProt Q9UQL6)	100 to 500 nM
O=C1CCC[C@H](C(=O)N[C@@H](CCCCCS)C(=O)Nc2ccccc2)N1	HDAC5 (Homo sapiens, UniProt Q9UQL6)	< 50 nM
O=C1CCC[C@@H](C(=O)N[C@@H](CCCCCS)C(=O)NCc2ccc(C(F)(F)F)cc2)N1	HDAC5 (Homo sapiens, UniProt Q9UQL6)	100 to 500 nM
Cc1cccc(NC(=O)[C@H](CCCCCS)NC(=O)[C@@H]2CCCC(=O)N2)c1	HDAC5 (Homo sapiens, UniProt Q9UQL6)	< 50 nM
O=C1CC[C@H](C(=O)N[C@@H](CCCCCS)C(=O)Nc2ccccc2)N1	HDAC5 (Homo sapiens, UniProt Q9UQL6)	< 50 nM
O=C1CCC[C@@H](C(=O)N[C@@H](CCCCCS)C(=O)N2CCc3ccccc3C2)N1	HDAC5 (Homo sapiens, UniProt Q9UQL6)	100 to 500 nM
O=C1NC[C@H](c2ccccc2)[C@@H]1C(=O)N[C@@H](CCCCCS)C(=O)Nc1ccccc1	HDAC5 (Homo sapiens, UniProt Q9UQL6)	50 to 100 nM
O=C1NC[C@@H](c2ccccc2)[C@H]1C(=O)N[C@@H](CCCCCS)C(=O)Nc1ccccc1	HDAC5 (Homo sapiens, UniProt Q9UQL6)	100 to 500 nM
O=C1C[C@@H](C(=O)N[C@@H](CCCCCS)C(=O)Nc2ccccc2)N1	HDAC5 (Homo sapiens, UniProt Q9UQL6)	< 50 nM
O=C1CCC[C@@H](C(=O)N[C@@H](CCCCCS)C(=O)NCc2cccc(OCc3ccccc3)c2)N1	HDAC5 (Homo sapiens, UniProt Q9UQL6)	100 to 500 nM
O=C1NCCC[C@H]1C(=O)N[C@@H](CCCCCS)C(=O)Nc1ccccc1	HDAC5 (Homo sapiens, UniProt Q9UQL6)	< 50 nM
O=C1CCC[C@@H](C(=O)N[C@@H](CCCCCS)C(=O)Nc2ccccc2)N1	HDAC5 (Homo sapiens, UniProt Q9UQL6)	< 50 nM
Cc1cccc(CCNC(=O)[C@H](CCCCCS)NC(=O)[C@@H]2CCCC(=O)N2)c1	HDAC5 (Homo sapiens, UniProt Q9UQL6)	100 to 500 nM
CN1C(=O)CCC[C@H]1C(=O)N[C@@H](CCCCCS)C(=O)Nc1ccccc1	HDAC5 (Homo sapiens, UniProt Q9UQL6)	< 50 nM
O=C1CCC[C@@H](C(=O)N[C@@H](CCCCCS)C(=O)NC2CCCC2)N1	HDAC5 (Homo sapiens, UniProt Q9UQL6)	100 to 500 nM
O=C1NC[C@@H](c2ccccc2)[C@@H]1C(=O)N[C@@H](CCCCCS)C(=O)Nc1ccccc1	HDAC5 (Homo sapiens, UniProt Q9UQL6)	< 50 nM
Cc1ccc(NC(=O)[C@H](CCCCCS)NC(=O)[C@@H]2CCCC(=O)N2)cc1	HDAC5 (Homo sapiens, UniProt Q9UQL6)	< 50 nM

----------
Biological target: HDAC3 (complex of full length human HDAC3 with human NCOR2 amino acids 395-489) (Homo sapiens)
Construct: complex of full length human HDAC3 with a C-terminal His-tag; His-tag (C); host or cells: baculovirus expression system
Sequence (O15379 whole entry, the tested form may be a part): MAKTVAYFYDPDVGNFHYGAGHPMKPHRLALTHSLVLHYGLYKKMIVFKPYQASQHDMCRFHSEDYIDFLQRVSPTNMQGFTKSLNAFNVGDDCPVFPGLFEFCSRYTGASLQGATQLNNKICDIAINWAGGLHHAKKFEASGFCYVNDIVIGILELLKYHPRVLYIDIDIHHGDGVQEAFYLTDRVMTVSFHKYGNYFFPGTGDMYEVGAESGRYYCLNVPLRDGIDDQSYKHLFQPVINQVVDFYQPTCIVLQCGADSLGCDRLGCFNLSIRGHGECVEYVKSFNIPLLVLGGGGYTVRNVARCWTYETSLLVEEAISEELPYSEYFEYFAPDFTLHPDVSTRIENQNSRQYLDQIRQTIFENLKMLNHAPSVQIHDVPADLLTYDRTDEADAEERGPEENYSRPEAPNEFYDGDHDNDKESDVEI
Sequence (Q9Y618 395-489 partner limits assumed): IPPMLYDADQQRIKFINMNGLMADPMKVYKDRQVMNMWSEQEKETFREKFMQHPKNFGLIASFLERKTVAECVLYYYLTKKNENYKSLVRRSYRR
Test: HDAC enzymatic assay, HDAC3
Format: biochemical
Conditions: Table 2, thio (SH) vs hydroxamate (CONHOH) MBG analogues; read-out: HDAC isoforms, 3 (IC50)
pIC50: −log10 of the molar value.

COMPOUND	pIC50
O=C1NC[C@@H](c2ccccc2)[C@@H]1C(=O)N[C@@H](CCCCCS)C(=O)Nc1ccccc1 [Example 31]	> 7.30
O=C1CC[C@H](C(=O)N[C@@H](CCCCCS)C(=O)Nc2ccccc2)N1 [Example 33]	> 7.30
CC(=O)SCCCCC[C@H](NC(=O)[C@H]1CCC(=O)N1)C(=O)Nc1ccccc1 [Example 21]	> 7.30
